inhibition at 10 µM: recorded values
- system-name: Human PDE10A enzyme (Homo sapiens, UniProt Q9Y233)
- Construct: transfected with the full-length gene; His-tag; made in house; host or cells: Sf9 or COS-7 cells
- Sequence (Q9Y233 267-1055): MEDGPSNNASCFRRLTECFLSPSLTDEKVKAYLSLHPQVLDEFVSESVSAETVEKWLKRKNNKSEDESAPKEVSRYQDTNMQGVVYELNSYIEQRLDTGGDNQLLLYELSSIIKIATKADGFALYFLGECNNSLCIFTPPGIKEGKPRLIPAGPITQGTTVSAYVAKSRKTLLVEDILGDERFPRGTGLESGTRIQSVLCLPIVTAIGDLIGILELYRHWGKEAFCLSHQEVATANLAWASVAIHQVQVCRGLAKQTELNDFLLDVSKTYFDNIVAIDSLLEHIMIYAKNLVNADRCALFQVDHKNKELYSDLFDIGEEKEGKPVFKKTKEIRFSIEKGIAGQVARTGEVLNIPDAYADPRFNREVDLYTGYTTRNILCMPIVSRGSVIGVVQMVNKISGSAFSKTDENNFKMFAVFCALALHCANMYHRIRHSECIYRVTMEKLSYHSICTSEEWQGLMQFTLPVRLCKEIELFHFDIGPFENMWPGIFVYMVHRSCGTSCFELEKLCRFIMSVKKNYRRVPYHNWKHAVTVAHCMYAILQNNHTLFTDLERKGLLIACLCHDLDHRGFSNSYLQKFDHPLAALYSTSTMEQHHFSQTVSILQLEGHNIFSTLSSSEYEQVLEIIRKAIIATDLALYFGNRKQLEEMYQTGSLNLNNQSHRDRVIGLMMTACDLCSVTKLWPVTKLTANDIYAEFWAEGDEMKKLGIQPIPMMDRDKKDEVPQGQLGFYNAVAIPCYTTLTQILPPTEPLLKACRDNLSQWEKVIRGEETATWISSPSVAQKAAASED
- experiment: PDE enzyme inhibition, SPA (Scintillation Proximity Assay) with [3H]cGMP
- Type: biochemical
- experimental-setup: compound 10 μM, [3H]cGMP substrate, read-out: Percent inhibition (10 μM)
Structures can show the parent of a compound that is named as a salt.
property: inhibition at 10 µM (%)

molecule=CCn1c(=O)n(-c2ccc(Oc3nc4cccnc4n3C)cc2)c2ncc(OCC(F)F)cc21 property="inhibition at 10 µM" units_label=% result_value=91
molecule=CCn1c(=O)n(-c2ccc(Oc3nc4cccnc4n3C)cc2)c2ncccc21 property="inhibition at 10 µM" units_label=% result_value=98
molecule=CCn1c(=O)n(-c2ccc(N3CCn4c3nc3cccnc34)cc2)c2ncccc21 property="inhibition at 10 µM" units_label=% result_value=104
molecule=CCn1c(=O)n(-c2ccc(Oc3nc4cccnc4n3C)cc2)c2ncc(C)cc21 property="inhibition at 10 µM" units_label=% result_value=104
molecule=Cc1cnc2c(c1)n(C(C)C)c(=O)n2-c1ccc(Oc2nc3cccnc3n2C)cc1 property="inhibition at 10 µM" units_label=% result_value=107
molecule=CCn1c(=O)n(-c2ccc(Oc3nc4cccnc4n3C)cc2)c2ncc(OC)cc21 property="inhibition at 10 µM" units_label=% result_value=103
molecule=CCn1c(=O)n(-c2ccc(Oc3nc4cccnc4n3C)cc2)c2nccc(CO)c21 property="inhibition at 10 µM" units_label=% result_value=105
molecule=CCn1c(=O)n(-c2ccc(Oc3nc4cccnc4n3C)cc2)c2ncc(Cl)cc21 property="inhibition at 10 µM" units_label=% result_value=102
molecule=CCn1c(=O)n(-c2ccc(Oc3nc4cccnc4n3C)cc2)c2ncc(OCC(F)(F)F)cc21 property="inhibition at 10 µM" units_label=% result_value=96
molecule="CCn1c(=O)n(-c2ccc(Oc3nc4ccccc4[nH]3)cc2)c2nccc(C)c21 [Example 64, dihydrochloride]" property="inhibition at 10 µM" units_label=% result_value=101
molecule=CCn1c(=O)n(-c2ccc(Oc3nc4cccnc4n3C)cc2)c2c1c(C)cc[n+]2[O-] property="inhibition at 10 µM" units_label=% result_value=98
molecule=O=c1[nH]c2cccnc2n1-c1ccc(Nc2nc3ccccc3o2)cc1 property="inhibition at 10 µM" units_label=% result_value=100
molecule=Cc1ccnc2c1n(C(C)C)c(=O)n2-c1ccc(Oc2nc3cccnc3n2C)cc1 property="inhibition at 10 µM" units_label=% result_value=99
molecule=Cn1c(Oc2ccc(N3C(=O)C(C)(C)c4cccnc43)cc2)nc2ccccc21 property="inhibition at 10 µM" units_label=% result_value=106
molecule=CCn1c(=O)n(-c2ccc3c(c2)CCN3c2nc3cccnc3[nH]2)c2ncccc21 property="inhibition at 10 µM" units_label=% result_value=97
molecule=CC1(C)C(=O)N(c2ccc(Oc3cn4ccccc4n3)cc2)c2ncccc21 property="inhibition at 10 µM" units_label=% result_value=101
molecule=CCn1c(=O)n(-c2ccc(Oc3nc4cccnc4[nH]3)cc2)c2ncccc21 property="inhibition at 10 µM" units_label=% result_value=101
molecule=CCn1c(=O)n(-c2ccc(-n3ncc4cccnc43)cc2)c2ncccc21 property="inhibition at 10 µM" units_label=% result_value=99
molecule=Cc1ccnc2c1n(C)c(=O)n2-c1ccc(Oc2nc3cccnc3n2C)cc1 property="inhibition at 10 µM" units_label=% result_value=99
molecule=Cn1c(Oc2ccc(-n3c(=O)n(C(F)F)c4cccnc43)cc2)nc2cccnc21 property="inhibition at 10 µM" units_label=% result_value=99
molecule=Cn1c(Oc2ccc(-n3c(=O)n(C(F)F)c4cccnc43)cc2)nc2ccccc21 property="inhibition at 10 µM" units_label=% result_value=100
molecule=CCn1c(=O)n(-c2ccc(Oc3nc4cccnc4n3C)cc2)c2nccc(C)c21 property="inhibition at 10 µM" units_label=% result_value=106
molecule=CCCn1c(=O)n(-c2ccc(Oc3nc4cccnc4n3C)cc2)c2ncccc21 property="inhibition at 10 µM" units_label=% result_value=98
molecule=CCn1c(=O)n(-c2ccc(Oc3nc4ccccc4n3C)cc2)c2ncc(C#N)cc21 property="inhibition at 10 µM" units_label=% result_value=102
molecule=CC(C)n1c(=O)n(-c2ccc(Oc3nc4cccnc4n3C)cc2)c2ncc(Cl)cc21 property="inhibition at 10 µM" units_label=% result_value=100
molecule=CC(C)n1c(=O)n(-c2ccc(Oc3nc4cccnc4n3C)cc2)c2ncccc21 property="inhibition at 10 µM" units_label=% result_value=101
molecule=CCn1c(=O)n(-c2ccc(Oc3nc4ccccc4n3C)cc2)c2ncncc21 property="inhibition at 10 µM" units_label=% result_value=101
molecule=CCn1c(=O)n(-c2ccc(-n3ccn4c5ccccc5nc34)cc2)c2ncccc21 property="inhibition at 10 µM" units_label=% result_value=101
molecule=CCn1c(=O)n(-c2ccc(Oc3nc4cccnc4n3C)cc2)c2ncc(OC(F)F)cc21 property="inhibition at 10 µM" units_label=% result_value=101
molecule=CCn1c(=O)n(-c2ccc(Oc3nc4cccnc4n3C)cc2)c2nccc(C(F)(F)F)c21 property="inhibition at 10 µM" units_label=% result_value=98
molecule=CCn1c(=O)n(-c2ccc(Oc3nc4cccnc4n3C)cc2)c2ncc(F)cc21 property="inhibition at 10 µM" units_label=% result_value=101
molecule=CC(C)n1c(=O)n(-c2ccc3c(c2)CCN3c2nc3cccnc3[nH]2)c2ncccc21 property="inhibition at 10 µM" units_label=% result_value=110
molecule=CCn1c(=O)n(-c2ccc(Oc3nc4ccccc4n3CC(C)(C)O)cc2)c2ncccc21 property="inhibition at 10 µM" units_label=% result_value=101
molecule=CCn1c(=O)n(-c2ccc(Oc3nc4ccccc4n3C)cc2)c2ncc(F)cc21 property="inhibition at 10 µM" units_label=% result_value=107
